method_summary: Cmax in rabbit at 10 mg/kg/day, iv
Type: ADME, organism-based, Oryctolagus cuniculus
Parameters: dose 10 mg/kg/day, route intravenous
cond: in vivo
measured_quantity: Cmax (µg/mL)
# output: bare number, implied unit µg/mL

Look up Cmax for this compound: CCCCCCCCCC(=O)N[C@@H](Cc1c[nH]c2ccccc12)C(=O)N[C@H](CC(N)=O)C(=O)N[C@@H](CC(=O)O)C(=O)N[C@@H]1C(=O)NCC(=O)N[C@@H](CCCN)C(=O)N[C@@H](CC(=O)O)C(=O)N[C@H](C)C(=O)N[C@@H](CC(=O)O)C(=O)NCC(=O)N[C@H](CO)C(=O)N[C@@H]([C@H](C)CC(=O)O)C(=O)N[C@@H](CC(=O)c2ccccc2N)C(=O)O[C@@H]1C
146
